Target: SMARCA2 (Homo sapiens)
Sequence (P51531 whole entry): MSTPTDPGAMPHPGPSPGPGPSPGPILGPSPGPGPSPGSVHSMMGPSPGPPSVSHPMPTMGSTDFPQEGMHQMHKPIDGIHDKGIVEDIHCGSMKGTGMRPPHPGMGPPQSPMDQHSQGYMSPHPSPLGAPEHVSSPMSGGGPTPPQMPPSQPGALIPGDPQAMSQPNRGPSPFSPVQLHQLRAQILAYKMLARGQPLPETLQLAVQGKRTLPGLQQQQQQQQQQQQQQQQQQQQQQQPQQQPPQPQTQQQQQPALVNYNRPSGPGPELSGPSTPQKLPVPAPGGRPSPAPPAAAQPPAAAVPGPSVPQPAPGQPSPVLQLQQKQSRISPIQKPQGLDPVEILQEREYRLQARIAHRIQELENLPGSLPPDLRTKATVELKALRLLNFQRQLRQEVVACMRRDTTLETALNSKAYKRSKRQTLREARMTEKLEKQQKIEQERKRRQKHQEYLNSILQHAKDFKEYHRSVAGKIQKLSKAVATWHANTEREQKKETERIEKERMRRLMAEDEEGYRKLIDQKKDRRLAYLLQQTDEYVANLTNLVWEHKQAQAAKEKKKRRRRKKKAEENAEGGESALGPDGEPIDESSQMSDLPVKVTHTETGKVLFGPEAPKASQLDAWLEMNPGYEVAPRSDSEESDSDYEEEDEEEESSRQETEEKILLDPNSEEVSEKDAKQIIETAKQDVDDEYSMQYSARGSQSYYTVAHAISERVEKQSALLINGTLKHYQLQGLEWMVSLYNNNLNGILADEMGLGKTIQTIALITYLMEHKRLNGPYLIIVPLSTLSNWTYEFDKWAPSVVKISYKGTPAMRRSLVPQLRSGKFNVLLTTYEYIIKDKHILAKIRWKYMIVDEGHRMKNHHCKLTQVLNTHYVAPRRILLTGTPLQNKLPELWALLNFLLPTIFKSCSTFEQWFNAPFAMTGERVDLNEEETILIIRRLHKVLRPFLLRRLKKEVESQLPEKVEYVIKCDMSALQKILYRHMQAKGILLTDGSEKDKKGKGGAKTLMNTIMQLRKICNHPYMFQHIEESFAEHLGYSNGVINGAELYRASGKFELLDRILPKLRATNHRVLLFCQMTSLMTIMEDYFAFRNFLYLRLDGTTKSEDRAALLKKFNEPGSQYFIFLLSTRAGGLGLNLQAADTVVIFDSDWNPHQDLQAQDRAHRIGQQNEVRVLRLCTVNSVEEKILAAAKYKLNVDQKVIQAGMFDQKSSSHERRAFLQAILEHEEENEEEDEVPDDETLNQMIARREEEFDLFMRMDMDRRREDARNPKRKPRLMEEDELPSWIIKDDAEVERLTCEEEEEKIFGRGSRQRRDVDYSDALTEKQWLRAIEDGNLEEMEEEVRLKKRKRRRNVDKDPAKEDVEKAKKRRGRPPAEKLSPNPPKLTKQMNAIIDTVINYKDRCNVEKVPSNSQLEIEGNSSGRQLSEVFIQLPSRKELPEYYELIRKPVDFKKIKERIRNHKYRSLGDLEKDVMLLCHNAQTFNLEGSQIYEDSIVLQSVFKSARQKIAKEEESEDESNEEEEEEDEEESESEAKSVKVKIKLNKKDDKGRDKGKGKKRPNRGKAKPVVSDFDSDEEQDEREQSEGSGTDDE
Test: SMARCA2 Western blot degradation in MV4-11 cells
Assay type: cell-based
Parameters: SMARCA2/SMARCA4 protein degradation selectivity in MV4-11 cells; endogenous in cells; host or cells: MV4-11
Details: MV4-11, MV4-11 cells, 24 h; read-out: SMARCA2 MSD MV411 degradation 24 h: average Dmax %
Here the recorded Dmax is given for each entry.

The following compounds have reported results that may help.
| compound | value |
| --- | --- |
| Cc1ncsc1-c1ccc(CNC(=O)[C@@H]2C[C@@H](O)CN2C(=O)[C@@H](NC(=O)[C@H]2CC3(C2)C[C@H](N2CCN(c4cnc(N5CCc6[nH]c7nnc(-c8ccccc8O)cc7c6[C@H]5C)nc4)CC2)C3)C(C)(C)C)cc1 (single isomer, unassigned) | 70 to 90% |
| C#Cc1ccc([C@H](CO)NC(=O)[C@@H]2C[C@@H](O)CN2C(=O)[C@@H](NC(=O)N2CC3(CC(N4CCC(c5cnc(N6CCc7[nH]c8nnc(-c9ccccc9O)cc8c7[C@H]6C)nc5)CC4)C3)C2)C(C)(C)C)nc1 (single isomer, unassigned) | 70 to 90% |
| Cc1ncsc1-c1ccc(CNC(=O)[C@@H]2C[C@@H](O)CN2C(=O)[C@@H](NC(=O)C2(F)CC2)C(C)(C)C)c(O[C@H]2CC[C@@H](N3CCC(c4cnc(N5CCc6[nH]c7nnc(-c8ccccc8O)cc7c6[C@@H]5C)nc4)CC3)CC2)c1 (single isomer, unassigned) | < 50% |
| C#Cc1ccc(CNC(=O)[C@@H]2C[C@@H](O)CN2C(=O)[C@@H](NC(=O)N2CC3(CC(N4CCC(N5CCC(N6CCc7[nH]c8nnc(-c9ccccc9O)cc8c7[C@@H]6C)CC5)CC4)C3)C2)C(C)(C)C)c(F)c1 | 50 to 70% |

Reading of Dmax for "C#Cc1ccc(CNC(=O)[C@@H]2C[C@@H](O)CN2C(=O)[C@@H](NC(=O)N2CC3(CC(N4CCC(c5cnc(N6CCc7[nH]c8nnc(-c9ccccc9O)cc8c7[C@H]6C)nc5)CC4)C3)C2)C(C)(C)C)c(C)c1" with SMARCA2 (Homo sapiens): > 90%

Tested system SMARCA2 (Homo sapiens); Dmax recorded for Cc1ncsc1-c1ccc(CNC(=O)[C@@H]2C[C@@H](O)CN2C(=O)[C@@H](NC(=O)C2(F)CC2)C(C)(C)C)c(OC2CCN(Cc3cnc(N4CCc5[nH]c6nnc(-c7ccccc7O)cc6c5[C@H]4C)nc3)CC2)c1 (single isomer, unassigned) was 50 to 70%

SMARCA2 (Homo sapiens) Dmax of C#Cc1ccc(CNC(=O)[C@@H]2C[C@@H](O)CN2C(=O)[C@@H](NC(=O)[C@H]2CCC3(CC2)C[C@H](N2CCC(N4CCC(N5CCN6c7cc(-c8ccccc8O)nnc7NC[C@H]6C5)CC4)CC2)C3)C(C)(C)C)c(OC)c1 (single isomer, unassigned) is 70 to 90%

Measured Dmax for this entry "Cc1ncsc1-c1ccc(CNC(=O)[C@@H]2C[C@@H](O)CN2C(=O)[C@@H](NC(=O)N2CC3(CC(N4CCC(c5cnc(N6CCc7[nH]c8nnc(-c9ccccc9O)cc8c7[C@H]6C)nc5)CC4)C3)C2)C(C)(C)C)cc1" on SMARCA2 (Homo sapiens): 70 to 90%

* * *

Some compounds, each annotated with its measured DC50.
Biological target: SMARCA2 (Homo sapiens)
Experiment: MSD SMARCA2 degradation in A549 cell line
Assay type: cell-based
Details: A549 cells, 24 h, read-out: SMARCA2 MSD A549 degradation 24 h: Average external-Abs DC50

Some solved cases for reference:
| compound | value |
| --- | --- |
| Cc1cc(F)ccc1C#CCNC(=O)[C@@H]1C[C@@H](O)CN1C(=O)[C@@H](NC(=O)[C@H]1CCC2(CC1)C[C@H](N1CCC(c3cnc(N4CCN5c6cc(-c7ccccc7O)nnc6NC[C@H]5C4)nc3)CC1)C2)C(C)(C)C (single isomer, unassigned) [I-106] | > 100 nM |
| C#Cc1ccc(CNC(=O)[C@@H]2C[C@@H](O)CN2C(=O)[C@@H](NC(=O)N2CC3(CC(N4CCC(c5cnc(N6CCc7[nH]c8nnc(-c9ccccc9O)cc8c7[C@H]6C)nc5)CC4)C3)C2)C(C)(C)C)c(OC)c1 | < 10 nM |
| C#Cc1ccc(CNC(=O)[C@@H]2C[C@@H](O)CN2C(=O)[C@@H](NC(=O)N2CC3(CC(N4CCC(c5cnc(N6CCc7[nH]c8nnc(-c9ccccc9O)cc8c7[C@H]6CC)nc5)CC4)C3)C2)C(C)(C)C)cc1 | 10 to 50 nM |

# compound "C#Cc1ccc(CNC(=O)[C@@H]2C[C@@H](O)CN2C(=O)[C@@H](NC(=O)N2CC3(CC(CN4CCC(c5cnc(N6CCc7[nH]c8nnc(-c9ccccc9O)cc8c7[C@H]6C)nc5)CC4)C3)C2)C(C)(C)C)cc1" ; its DC50 = 10 to 50 nM

get_value(item= C#Cc1ccc(CNC(=O)[C@@H]2C[C@@H](O)CN2C(=O)[C@@H](NC(=O)[C@H]2CCC3(CC2)C[C@H](N2CCC(c4ccc(N5CCN6c7cc(-c8ccccc8O)nnc7NC[C@H]6C5)nc4)CC2)C3)C(C)(C)C)cc1 (single isomer, unassigned) [I-156] , readout=DC50) returns 10 to 50 nM

* * *

Biological target: SMARCA4 (Homo sapiens, UniProt P51532)
Construct: SMARCA2/SMARCA4 protein degradation selectivity in MV4-11 cells; endogenous in cells; host or cells: MV4-11
Sequence (P51532 whole entry): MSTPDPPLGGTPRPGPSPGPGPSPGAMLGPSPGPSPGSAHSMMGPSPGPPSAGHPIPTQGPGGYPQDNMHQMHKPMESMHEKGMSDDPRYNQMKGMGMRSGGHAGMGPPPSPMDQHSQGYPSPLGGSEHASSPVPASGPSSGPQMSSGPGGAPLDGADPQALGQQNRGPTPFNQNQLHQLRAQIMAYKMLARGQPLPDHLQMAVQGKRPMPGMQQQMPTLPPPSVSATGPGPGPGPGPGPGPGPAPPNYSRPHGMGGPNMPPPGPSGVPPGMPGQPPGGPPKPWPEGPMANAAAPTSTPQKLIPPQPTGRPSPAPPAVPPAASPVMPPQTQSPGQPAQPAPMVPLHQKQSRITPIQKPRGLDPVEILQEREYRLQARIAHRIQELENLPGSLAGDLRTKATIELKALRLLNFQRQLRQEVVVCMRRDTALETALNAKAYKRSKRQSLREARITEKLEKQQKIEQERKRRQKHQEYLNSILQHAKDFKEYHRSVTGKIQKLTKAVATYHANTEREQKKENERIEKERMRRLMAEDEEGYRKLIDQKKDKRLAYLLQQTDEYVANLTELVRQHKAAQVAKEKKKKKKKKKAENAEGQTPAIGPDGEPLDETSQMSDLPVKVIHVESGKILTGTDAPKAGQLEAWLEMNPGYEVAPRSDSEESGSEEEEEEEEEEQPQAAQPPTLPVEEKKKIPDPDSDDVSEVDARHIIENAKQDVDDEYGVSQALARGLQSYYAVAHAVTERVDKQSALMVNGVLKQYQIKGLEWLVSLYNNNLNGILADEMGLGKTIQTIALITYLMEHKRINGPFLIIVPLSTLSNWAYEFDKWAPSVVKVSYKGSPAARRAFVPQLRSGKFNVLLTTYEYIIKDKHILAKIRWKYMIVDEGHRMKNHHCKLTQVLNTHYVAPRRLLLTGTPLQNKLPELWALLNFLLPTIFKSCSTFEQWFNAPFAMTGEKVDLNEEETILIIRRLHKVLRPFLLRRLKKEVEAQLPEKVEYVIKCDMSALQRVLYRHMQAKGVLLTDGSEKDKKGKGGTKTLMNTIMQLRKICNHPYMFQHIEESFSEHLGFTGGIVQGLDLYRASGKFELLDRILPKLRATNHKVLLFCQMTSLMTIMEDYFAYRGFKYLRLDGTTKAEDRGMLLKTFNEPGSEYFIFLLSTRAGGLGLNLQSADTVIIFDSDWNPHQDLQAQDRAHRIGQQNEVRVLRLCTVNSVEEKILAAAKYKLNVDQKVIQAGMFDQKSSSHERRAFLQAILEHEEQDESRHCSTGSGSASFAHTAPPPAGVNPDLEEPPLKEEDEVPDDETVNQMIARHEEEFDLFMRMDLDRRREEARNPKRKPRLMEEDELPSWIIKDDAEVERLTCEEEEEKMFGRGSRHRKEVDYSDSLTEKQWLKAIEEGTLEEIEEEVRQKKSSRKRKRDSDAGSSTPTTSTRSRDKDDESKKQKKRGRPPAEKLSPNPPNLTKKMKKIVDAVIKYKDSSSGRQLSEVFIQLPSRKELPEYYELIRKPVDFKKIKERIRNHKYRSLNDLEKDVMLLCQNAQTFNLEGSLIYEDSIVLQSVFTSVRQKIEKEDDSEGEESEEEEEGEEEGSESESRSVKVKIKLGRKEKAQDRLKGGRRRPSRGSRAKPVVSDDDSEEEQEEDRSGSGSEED
Assay: SMARCA4 Western blot degradation in MV4-11 cells
Type: cell-based
Conditions: MV4-11, MV4-11 cells, 24 h; read-out: SMARCA4 MSD MV411 degradation 24 h: average Dmax %
experimental_readout: Dmax

These solved cases illustrate the format of a correct answer.
| compound | Dmax |
| --- | --- |
| C#Cc1ccc(CNC(=O)[C@@H]2C[C@@H](O)CN2C(=O)[C@@H](NC(=O)N2CC3(CC(N4CCC(c5cnc(N6CCc7[nH]c8nnc(-c9ccccc9O)cc8c7[C@H]6C)nc5)CC4)C3)C2)C(C)(C)CCOCC(=O)O)cc1 (single isomer, unassigned) | 50 to 70% |
| Cc1ncsc1-c1ccc(CNC(=O)[C@@H]2C[C@@H](O)CN2C(=O)[C@@H](NC(=O)[C@H]2CC[C@@H](c3ccc(-c4cnc(N5CCN6c7cc(-c8ccccc8O)nnc7NC[C@H]6C5)nc4)cc3)CC2)C(C)(C)C)cc1 | > 90% |
| Cc1ncsc1-c1ccc(CNC(=O)[C@@H]2C[C@@H](O)CN2C(=O)[C@@H](NC(=O)C2(F)CC2)C(C)(C)C)c(OC2CCN(Cc3cnc(N4CCc5[nH]c6nnc(-c7ccccc7O)cc6c5[C@H]4C)nc3)CC2)c1 (single isomer, unassigned) | 70 to 90% |

Next:
Dmax in this record for CC(C)C(C(=O)N1C[C@H](O)C[C@H]1C(=O)NCc1ccc(C#N)cc1)c1cc(N2CC3(CC(N4CCC(c5cnc(N6CCN7c8cc(-c9ccccc9O)nnc8NC[C@H]7C6)nc5)CC4)C3)C2)no1 (stereo partly shown) : < 50%

* * *

# Dmax per record follows
Biological target: SMARCA4 (Homo sapiens, UniProt P51532)
Construct: SMARCA2/SMARCA4 protein degradation selectivity in MV4-11 cells; endogenous in cells; host or cells: MV4-11
Experiment: SMARCA4 Western blot degradation in MV4-11 cells
Format: cell-based
Details: MV4-11, MV4-11 cells, 24 h; read-out: SMARCA4 MSD MV411 degradation 24 h: average Dmax %

The examples below pair each entry with its known result.
| compound | subject_of_test | Dmax |
| --- | --- | --- |
| C#CCOc1cc(C(C(=O)N2C[C@H](O)C[C@H]2C(=O)NCc2ccc(-c3scnc3C)cc2O[C@H]2CC[C@@H](N3CCC(c4cnc(N5CCc6[nH]c7nnc(-c8ccccc8O)cc7c6[C@H]5C)nc4)CC3)CC2)C(C)C)on1 (single isomer, unassigned) | SMARCA4 (Homo sapiens, UniProt P51532) | > 90% |
| C#Cc1ccc(CNC(=O)[C@@H]2C[C@@H](O)CN2C(=O)[C@@H](NC(=O)[C@H]2CC3(C2)C[C@H](N2CCN(C(=O)CN4CCN5c6cc(-c7ccccc7O)nnc6NC[C@H]5C4)CC2)C3)C(C)(C)C)cc1 (single isomer, unassigned) | SMARCA4 (Homo sapiens, UniProt P51532) | > 90% |

Consider "C#Cc1ccc(CNC(=O)[C@@H]2C[C@@H](O)CN2C(=O)[C@@H](NC(=O)N2CC3(CC(N4CCC(N5CC6(CC(N7CCN8c9cc(-c%10ccccc%10O)nnc9NC[C@H]8C7)C6)C5)CC4)C3)C2)C(C)(C)C)cc1" . Its measured Dmax is 70 to 90%

Dmax reading for Cc1ncsc1-c1ccc(CNC(=O)[C@@H]2C[C@@H](O)CN2C(=O)C(c2cc(N3CC4(CCC(N5CCC(c6cnc(N7CCc8[nH]c9nnc(-c%10ccccc%10O)cc9c8[C@@H]7C)nc6)CC5)CC4)C3)no2)C(C)C)cc1 (single isomer, unassigned) : 70 to 90%

These measurements were taken from patent US20250170248A1.
